Answer each item with its documented EC50.
target: Sphingosine 1-phosphate receptor 3 (Homo sapiens, UniProt Q99500); assay: Agonist activity at human S1P3 receptor expressed in CHO cells assessed as increase in calcium flux by aequorin-derived luminescence assay
Sequence (Q99500 whole entry): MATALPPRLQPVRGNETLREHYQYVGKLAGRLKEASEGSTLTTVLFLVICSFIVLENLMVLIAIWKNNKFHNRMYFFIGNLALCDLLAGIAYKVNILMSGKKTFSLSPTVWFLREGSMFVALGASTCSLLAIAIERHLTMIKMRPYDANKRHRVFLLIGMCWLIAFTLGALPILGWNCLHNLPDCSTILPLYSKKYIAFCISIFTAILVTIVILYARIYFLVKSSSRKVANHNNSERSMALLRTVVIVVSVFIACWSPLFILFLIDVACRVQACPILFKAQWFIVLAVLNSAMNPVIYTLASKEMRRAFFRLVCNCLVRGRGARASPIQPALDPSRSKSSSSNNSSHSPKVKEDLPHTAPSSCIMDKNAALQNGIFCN

What does the record list as EC50 for `O=C(O)CCN1CCC2(CC1)COc1cc(OCc3cccc(Cl)c3)ccc12` ?
> 10 µM

What does the record list as EC50 for CCc1cccc(Cl)c1COc1ccc2c(c1)OCC21CCCN(CCC(=O)O)C1.Cl (stereo not drawn) ?
> 10 µM

What does the record list as EC50 for `Cl.O=C(O)CCN1CCC2(CC1)COc1cc(OCc3cc(Cl)nc(Cl)c3)ccc12` ?
> 10 µM

What does the record list as EC50 for `O=C(O)CCN1CCC2(CC1)COc1cc(OCc3cc(Cl)ccc3Cl)ccc12` ?
1 µM

What does the record list as EC50 for `O=C(O)CCN1CCC2(CC1)COc1cc(C#Cc3ccccc3Cl)ccc12` ?
> 10 µM

What does the record list as EC50 for CCc1cccc(Cl)c1COc1ccc2c(c1)OCC21CCN(CC(C)C(=O)O)CC1.Cl (stereo not drawn) ?
> 10 µM

What does the record list as EC50 for `CCc1cccc(Cl)c1CSc1ccc2c(c1)OCC21CCN(CCC(=O)O)CC1.Cl` ?
> 1 µM

What does the record list as EC50 for `O=P(O)(O)OCCN1CCC2(CC1)COc1cc(OCc3c(Cl)cccc3Cl)ccc12` ?
> 10 µM

What does the record list as EC50 for `O=C(O)CCCN1CCC2(CC1)COc1cc(OCc3c(Cl)cccc3Cl)ccc12` ?
1.26 µM

What does the record list as EC50 for `CCc1cccc(CC)c1COc1ccc2c(c1)OCC21CCN(CCC(=O)O)CC1` ?
1.58 µM

What does the record list as EC50 for `CCc1cccc(Cl)c1COc1ccc2c(c1)OCC21CCN(CCC(=O)O)CC1` ?
> 10 µM

What does the record list as EC50 for `O=C(O)CCN1CCC2(CC1)COc1cc(OCCCc3ccccc3)ccc12` ?
1.58 µM

What does the record list as EC50 for `CC(C)c1cccc(Cl)c1COc1ccc2c(c1)OCC21CCN(CCC(=O)O)CC1.Cl` ?
> 10 µM

----------
Answer each item with its documented EC50.
molecular target: Sphingosine 1-phosphate receptor 1 (Homo sapiens, UniProt P21453); assay: Agonist activity at human S1P1 receptor expressed in CHO cells assessed as increase in calcium flux by aequorin-derived luminescence assay
Sequence (P21453 whole entry): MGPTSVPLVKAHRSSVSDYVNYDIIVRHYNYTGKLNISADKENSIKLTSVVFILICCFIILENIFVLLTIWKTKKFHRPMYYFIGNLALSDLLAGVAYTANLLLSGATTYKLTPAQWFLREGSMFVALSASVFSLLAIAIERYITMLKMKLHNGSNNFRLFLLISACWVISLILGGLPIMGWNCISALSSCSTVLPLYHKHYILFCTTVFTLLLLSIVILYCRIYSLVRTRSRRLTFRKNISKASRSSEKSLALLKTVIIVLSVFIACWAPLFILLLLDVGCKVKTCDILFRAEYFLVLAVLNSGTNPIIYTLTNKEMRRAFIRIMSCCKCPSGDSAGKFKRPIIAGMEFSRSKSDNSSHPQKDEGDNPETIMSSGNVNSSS

What does the record list as EC50 for `O=C(O)CCN1CCC2(CC1)COc1cc(C#Cc3ccccc3Cl)ccc12` ?
> 31.6 µM

What does the record list as EC50 for `Cl.O=C(O)CCN1CCC2(CC1)COc1cc(SCc3c(Cl)cccc3Cl)ccc12` ?
> 10 µM

What does the record list as EC50 for `Cl.O=C(O)CCN1CCC2(CC1)COc1cc(/C=C/c3c(Cl)cccc3Cl)ccc12` ?
> 31.6 µM

What does the record list as EC50 for `O=C(O)CCN1CCC2(CC1)COc1cc(OCc3ccccc3)ccc12` ?
> 31.6 µM

----------
Answer each item with its documented pEC50.
target: Sphingosine 1-phosphate receptor 5 (Homo sapiens); test: Agonist activity at human S1P5 receptor expressed in CHO cells assessed as increase in calcium flux by aequorin-derived luminescence assay
Sequence (Q9H228 whole entry): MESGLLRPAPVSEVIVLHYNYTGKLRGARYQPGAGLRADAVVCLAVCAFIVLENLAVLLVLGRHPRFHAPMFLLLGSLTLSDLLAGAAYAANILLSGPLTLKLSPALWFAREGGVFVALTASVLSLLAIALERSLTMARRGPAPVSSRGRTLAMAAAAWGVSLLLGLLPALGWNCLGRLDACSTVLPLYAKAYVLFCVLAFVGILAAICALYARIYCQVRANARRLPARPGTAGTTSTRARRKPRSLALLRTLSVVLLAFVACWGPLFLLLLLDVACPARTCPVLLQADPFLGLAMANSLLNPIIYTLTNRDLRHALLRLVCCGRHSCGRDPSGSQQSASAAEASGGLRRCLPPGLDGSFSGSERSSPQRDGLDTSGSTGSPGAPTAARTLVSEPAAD
Reminder that pEC50 means the negative base-10 logarithm of the concentration expressed in mol/L.

What does the record list as pEC50 for `O=C(O)CCN1CCC2(CC1)COc1cc(OCc3cccc(Cl)c3)ccc12` ?
6.50

What does the record list as pEC50 for `O=C(O)CCN1CCC2(CC1)COc1cc(C#Cc3ccccc3Cl)ccc12` ?
7.60

What does the record list as pEC50 for `Cc1cc(Cl)c(COc2ccc3c(c2)OCC32CCN(CCC(=O)O)CC2)c(Cl)c1` ?
8.10

What does the record list as pEC50 for `CCc1cccc(CC)c1COc1ccc2c(c1)OCC21CCN(CCC(=O)O)CC1` ?
7.70

What does the record list as pEC50 for `Cl.O=C(O)CCN1CCC2(CC1)COc1cc(SCc3c(Cl)cccc3Cl)ccc12` ?
7.90

What does the record list as pEC50 for `O=C(O)CCCN1CCC2(CC1)COc1cc(OCc3c(Cl)cccc3Cl)ccc12` ?
7.80

What does the record list as pEC50 for `O=C(O)CCN1CCC2(CC1)COc1cc(OCc3c(Cl)cccc3C(F)(F)F)ccc12` ?
6.90

What does the record list as pEC50 for CCc1cccc(Cl)c1COc1ccc2c(c1)OCC21CCN(CC(C)C(=O)O)CC1.Cl (stereo not drawn) ?
7.80
